I'd appreciate it if you could supply pest or weed control at 200 ppm values for the items below.
Tested on: Spodoptera littoralis (Egyptian Cotton Leaf Worm)
Experiment: Example B14: Spodoptera littoralis, sprayed cotton leaf discs, anti-feeding effect
Type: in vivo
Conditions: foliar, 72 h, application rate of 200 ppm, L1 larvae, 3 days after infestation

Query block: Recall the recorded pest or weed control at 200 ppm for CCS(=O)(=O)c1cc(-c2ccc(OC(F)(F)F)cc2)cnc1-c1cn2cnc(C(F)(F)F)cc2n1 with Spodoptera littoralis (Egyptian Cotton Leaf Worm) and state it.
Result block: ≥ 80%

Query block: Recall the recorded pest or weed control at 200 ppm for CCS(=O)(=O)c1cc(-c2cccc(SC)c2)cnc1-c1cn2cnc(C(F)(F)F)cc2n1 with Spodoptera littoralis (Egyptian Cotton Leaf Worm) and state it.
Result block: ≥ 80%

Query block: Recall the recorded pest or weed control at 200 ppm for CCS(=O)(=O)c1cc(-c2cc(F)cc(F)c2)cnc1-c1cn2cnc(C(F)(F)F)cc2n1 with Spodoptera littoralis (Egyptian Cotton Leaf Worm) and state it.
Result block: ≥ 80%

Query block: Recall the recorded pest or weed control at 200 ppm for CCS(=O)(=O)c1cc(-c2ccc(Cl)cc2)cnc1-c1cn2cnc(C(F)(F)C(F)(F)F)cc2n1 with Spodoptera littoralis (Egyptian Cotton Leaf Worm) and state it.
Result block: ≥ 80%

Query block: Recall the recorded pest or weed control at 200 ppm for CCS(=O)(=O)c1cc(-c2ccc(F)cc2F)cnc1-c1cn2cnc(C(F)(F)F)cc2n1 with Spodoptera littoralis (Egyptian Cotton Leaf Worm) and state it.
Result block: ≥ 80%

Query block: Recall the recorded pest or weed control at 200 ppm for CCS(=O)(=O)c1cc(-n2ccc(C(F)(F)F)n2)ccc1-c1cn2cnc(C(F)(F)F)cc2n1 [Compound P1] with Spodoptera littoralis (Egyptian Cotton Leaf Worm) and state it.
Result block: ≥ 80%

Query block: Recall the recorded pest or weed control at 200 ppm for CCS(=O)(=O)c1cc(-c2ccc(C(F)(F)F)cc2)ccc1-c1cn2cnc(C(F)(F)F)cc2n1 [Compound P2] with Spodoptera littoralis (Egyptian Cotton Leaf Worm) and state it.
Result block: ≥ 80%
